# credit: patent US20250250357A1

# Target or system: T1, human MSLN-R2-his protein (human, UniProt Q13421 391-486)
# T1 construct: also called human MSLN-R2 protein; hMSLN-R2-his; not shown: His tag
# T1 sequence (Q13421 other isoform, or with tags, fused parts or gaps): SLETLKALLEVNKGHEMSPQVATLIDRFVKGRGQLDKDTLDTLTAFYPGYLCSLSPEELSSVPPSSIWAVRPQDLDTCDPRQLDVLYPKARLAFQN
# Protocol details: ELISA, coated antigen; antibody 10 nM
Endpoint: OD450
Returns: string containing the numeric result and its unit.

Lab note: measured OD450 of Tab106 (YP218, hIgG1) (antibody, V domains shown, Control antibody: YP218 VH and VL recombined into human IgG1 CH and CL expression vectors; also called YP218 human IgG1 antibody) VH: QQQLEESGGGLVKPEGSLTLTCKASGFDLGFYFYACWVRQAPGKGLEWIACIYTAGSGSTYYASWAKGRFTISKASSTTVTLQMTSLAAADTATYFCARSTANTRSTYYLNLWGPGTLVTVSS VL: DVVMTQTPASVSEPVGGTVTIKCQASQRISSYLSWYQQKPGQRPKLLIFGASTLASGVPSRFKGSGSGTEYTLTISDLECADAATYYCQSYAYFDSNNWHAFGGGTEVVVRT was 1.39 OD450
